- system tested: T1, human galectin-10 as coated in ELISA (soluble galectin-10; tag not given) (human, UniProt Q05315 1-142, limits assumed)
- T1 construct: also called coated galectin-10; Gal10
- T1 sequence: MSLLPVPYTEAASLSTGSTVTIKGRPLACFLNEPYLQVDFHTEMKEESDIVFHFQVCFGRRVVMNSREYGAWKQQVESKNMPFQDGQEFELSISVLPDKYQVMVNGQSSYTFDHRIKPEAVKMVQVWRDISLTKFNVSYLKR
- assay remarks: ELISA, scFv periplasmic extract on coated soluble galectin-10, anti-Myc-HRP
For each of the binders below, state its PERI-ELISA binding (OD values).
One number for each entry, in OD.

According to the records, this binder scFv 4G05 (periplasmic extract, Myc-tagged) (scFv, not shown: small tags and cut ends) scFv: QLQVVESGGGLVQTGGSLTLSCTTSGFTFSRYWMIWVRQAPGKGLEWVSSIYNDGGNTYYADSVKGRFTISRDNSENTLYLQMNSLKSEDTAVYYCAKLKAAYYGMDYWGKGTLVTVSSGGGGSGGGGSGGGGSSSALTQPSAVSVSLGQTARITCQGANLGRYYGIWYQQKPGQAPVQVIYGDSNRPSGIPERFSGSSSGGTATLTISGAQAEDEADYYCQSYESSTSPVFGGGTHLTVL displays PERI-ELISA binding (OD values) of 3.8

According to the records, this binder scFv 2B11 (periplasmic extract, Myc-tagged) (scFv, not shown: small tags and cut ends) scFv: QVQLQESGPGLVKPSQTLSLTCTVSGGSITTNYYYWSWIRQPPGKGLEWMGAIAYSGSTYYSPSLKSRTSISRDTSKNQFTLQLSSVTPEDTAVYYCARAPYGISREYDYWGQGTQVTVSSGGGGSGGGGSGGGGSHSAVTQPSAVSVSLGQTARITCQGGKFGRYYASWYQQKPGQAPVLVIYKDSERPSGIPERFSGSSSGDTATLSISGAQAEDEADYFCQSGRSSDNAVFGGGTHLTVL displays PERI-ELISA binding (OD values) of 3.79

Next, consider the following binder.
According to the records, this binder scFv 3A03 (periplasmic extract, Myc-tagged) (scFv, not shown: small tags and cut ends) scFv: QVQLVESGGGLVQPGGSLRLSCATSGFTFSVYAMSWVRQAPGKGLEWVADINTSGDSTTYADSVKGRFTISRDNAKNTLYLQMNSLKPEDTAVYYCANRYTQERGQGTQVTVSSGGGGSGGGGSGGGGSDVVLTQTPGSLSVVPGEAASISCKPGRTLVHTDGRTYLYWLQQKPGQRPQLLIYQVSNRGSGVPDRFTGSGSGTDFTLKISGVKAEDAGVYYCAQATYYPLTFGSGTRLEIK displays PERI-ELISA binding (OD values) of 3.4
